# Protocol notes: in vivo
# Condition label: SD, rat, iv, 2.5 mg/kg
Numbered stars: 1 amine (or outer) side, 2 acyl side, 3 side chain; on linkers, the order of the positions; unused ones are H or OH. Bridge positions count the residues as written; N and C are the ends. Square brackets hold non-standard residues; d marks the D form. Peptide text beside a SMILES is read from it. * marks the point of attachment. Orn(4R-OH,5R-OCH2CH2NMe3+) = C[N+](C)(C)CCO[C@@H](N[*:3])[C@H](O)C[C@H](N[*:1])C(=O)[*:2]; hTyr(3S-OH,4S-OH) = N[C@H](C(=O)O)[C@H](O)[C@@H](O)c1ccc(O)cc1; X1 = CCCCCOc1cc(F)c(C#Cc2ccc3cc(C(=O)*)ccc3c2)cc1F; Pro(3S-OH,4S-Me) = C[C@H]1CN[C@H](C(=O)O)[C@H]1O; Hyp = O=C(O)[C@@H]1C[C@@H](O)CN1
Measurement type: MRT last (h)
Answers are plain numbers, in h.

Request: # input compound: CCCCCOc1cc(F)c(C#Cc2ccc3cc(C(=O)N[C@H]4C[C@@H](O)[C@@H](OCC[N+](C)(C)C)NC(=O)[C@@H]5[C@@H](O)[C@@H](C)CN5C(=O)[C@H]([C@@H](C)O)NC(=O)[C@H]([C@H](O)[C@@H](O)c5ccc(O)cc5)NC(=O)[C@@H]5C[C@@H](O)CN5C(=O)[C@H]([C@@H](C)O)NC4=O)ccc3c2)cc1F [Example 16] (X1-[Orn(4R-OH,5R-OCH2CH2NMe3+)]T[Hyp][hTyr(3S-OH,4S-OH)]T[Pro(3S-OH,4S-Me)]; lactam 1-C) ; wanted: its MRT last
Result: 26.1

Just for reference, patent US20250011365A1 is where these values come from.
